Taken from patent US20080102065A1.

# test.target: T1, cynomolgus monkey EpoR (cynoEpoR) (cynomolgus monkey, UniProt A0A2K5WKK4 25-250)
# T1 construct: Soluble protein (coated in ELISA, analyte in SPR)
# T1 sequence: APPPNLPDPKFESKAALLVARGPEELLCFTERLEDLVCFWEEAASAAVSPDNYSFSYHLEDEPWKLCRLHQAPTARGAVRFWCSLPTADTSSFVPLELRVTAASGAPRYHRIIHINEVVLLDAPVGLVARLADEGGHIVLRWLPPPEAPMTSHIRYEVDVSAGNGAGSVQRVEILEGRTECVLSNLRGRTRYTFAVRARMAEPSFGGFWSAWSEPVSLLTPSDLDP
# test.method.notes: SPR, Biacore T100; scFv-Fc captured on anti-human IgG Fc CM5 chip, EpoR as analyte; 1:1 fit;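 note: measured at 25 °C in HBS-EP buffer with 0.1 mg/ml BSA, flowed at 50 µl/min, 1 min association then dissociation (10 min human, 5 min cyno EpoR)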
readout.name: pKd
In textbook form, pKd equals minus log to base ten of the concentration in mol/L.

* Mxb 307 (clone 307 scFv-Fc protein) (Fc fusion, Tested as scFv-Fc (maxibody) with an Fc derived from human IgG1) VH: EVQLVESGGGLVQPGGSLRLSCAVSGFTFSKYWMTWVRQAPGKGLEWVANIKPDGSEKYYVESVKGRFTISRDNAKNSVYLQMNSVRAEDTAVYYCARVSRGGSFSDWGQGTMVTVSS VL: QSVLTQPPSASGSPGQSVTISCTGTSSDVGGYNYVSWYQQHPDKAPRLMIYDVNKRPSGVPDRFSGSKSGNTASLTVSGLQAEDEAHYYCNSYAGSNNWVFGGGTQLTVL | 5.92
* Mxb 16 (clone 16 scFv-Fc protein) (Fc fusion, Tested as scFv-Fc (maxibody) with an Fc derived from human IgG1) VH: QVQLQESGPGLVKPSETLSLTCTVSGGYINNYYWSWIRQPPGKGLEWIGYIHYSGSTYYNPSLKSRVTISEDTSKNQFSLKLSSATAADTAVYYCARVGYYYDSSGYNLAWYFDLWGRGTLVTVSA VL: SSELTQDPAVSVALGQTVRITCQGDNLRSYSATWYQQKPGQAPVLVLFGENNRPSGIPDRFSGSKSGDTAVLTITGTQTQDEADYYCTSRVNSGNHLGVFGPGTQLTVL | 5.36
* Mxb 15 (clone 15 scFv-Fc protein) (Fc fusion, Tested as scFv-Fc (maxibody) with an Fc derived from human IgG1) VH: QVQLQESGPGLVRPSGTLSLTCAVSGGSIGSSNWWSWVRQAPGKGLEWIGEISQSGSTNYNPSLKGRVTISLDRSRNQLSLKLSSVTAADTAVYYCARQLRSIDAFDIWGPGTTVTVSA VL: SYVLTQPPSVSVSPGLTATITCSGDKLGDKYASWYQQKPGQSPVLVIYQDRKRPSGIPERFSGSNSGNTATLTISGTQAVDEADYYCQAWDSDTSYVFGTGTQLTVL | 5.50
* Mxb 295 (clone 295 scFv-Fc protein) (Fc fusion, Tested as scFv-Fc (maxibody) with an Fc derived from human IgG1) VH: EVQLVESGGGLVQPGGSLRLSCAASGFTFSSYAMSWVRQAPGKGLEWVSGISGSGSSEGGTYYADSVKGRFTLSRDNSKNTLYLQMNSLRAEDTALYYCVKDRPSRYSFGYYFDYWGRGTLVTVSS VL: LPVLTQPPSVSVSPGQTASIACSGNKLGDKYVSWYQQKPGQSPLLVIYQDTKRPSGIPERFSGSNSGNTATLTISGTQAMDEADYYCQAWDSSTDVVFGGGTKLTVL | 6.27
* Mxb 319 (clone 319 scFv-Fc protein) (Fc fusion, Tested as scFv-Fc (maxibody) with an Fc derived from human IgG1) VH: QVQLVQSGAEIKKPGASVKVSCKTFGSPFSTNDIHWVRQAPGQGLEWMGIIDTSGAMTRYAQKFQGRVTVTRETSTSTVYMELSSLKSEDTAVYYCAREGCTNGVCYDNGFDIWGQGTLVTVSS VL: DIQMTQSPSTLSASIGDRVTITCRASEGIYHWLAWYQQKPGKAPKLLIYKASSLASGAPSRFSGSGSGTDFTLTISSLQPDDFATYYCQQYSNYPLTFGGGTKLEIK | 6.92
* Mxb 330 (clone 330 scFv-Fc protein) (Fc fusion, Tested as scFv-Fc (maxibody) with an Fc derived from human IgG1) VH: EVQLVESGGGLVQPGGSLRLSCAVSGFTFSKYWMTWVRQAPGKGLEWVANIKPDGSEKYYVESVKGRFTISRDNAKNSVYLQMNSVRAEDTAVYYCARVSRGGSFSDWGQGTLVTVSS VL: QSALTQPPSASGSPGQSVTISCTGTSSDVGAYNYVSWYQQHPGKAPKLMIYEVARRPSGVPDRFSGSKSGNTASLTVSGLQAEDEADYYCSSYAGSNNFAVFGRGTKLTVL | 6.05

Now consider the entry below.
Problem: Quick one: pKd of Mxb 13 (clone 13 scFv-Fc protein) (Fc fusion, Tested as scFv-Fc (maxibody) with an Fc derived from human IgG1) VH: QVQLQQSGGGVVQPGRSLRLSCAASGFTFSDYAMHWVRQAPGKGLEWVAVISNHGKSTYYADSVKGRFTISRDNSKHMLYLQMNSLRADDTALYYCARDIALAGDYWGQGTLVTVSA VL: DIQMTQSPSSLSASVGDRVTITCRASQSISSYLNWYQQLPGKVPKLLIYGASKLQSGVPSRFSGSGSGTDFTLTISSLQPEDFATYYCLQDYNYPLTFGPGTRLEIK ?
Result: 6.04
